Experiment: Supplementation trial: serum levels in eNAD-affected and control horses at baseline and after bioavailable RRR-alpha-tocopherol (LC-MS)
Assay type: in vivo, horse
Conditions: horse, in vivo, Serum α-CMBHC (median, range)
OBSERVABLE: concentration at 56 day (ng/mL)
Answer with a number only, understood to be in ng/mL.

Problem: # query: concentration at 56 day of entry Cc1c(C)c2c(c(C)c1O)CCC(C)(CCCC(C)C(=O)O)O2 (stereo not shown)
Solution: 0.28
